Data origin: PubChem BioAssay (NCI)

I'd appreciate it if you could supply TGI values for the items below.
# Tested on: HT29 colon
# assay: NCI tumour cell line growth inhibition, 48 h
State the answer as a number, implicitly in µM.

-- ask Give me measured TGI, please, for this compound: COC(=O)[C@]12CC[C@@H](C)[C@H](C)[C@@H]1C1=CC[C@@H]3[C@@]4(C)C(C=O)=C[C@@](C)(COS(C)(=O)=O)C4[C@H](O)C[C@@]3(C)[C@]1(C)CC2 (some centres not stated)
-- reply 3.5

-- ask Give me measured TGI, please, for this compound: CC(=O)OC(C)c1cc2c(s1)C(=O)c1c(C(C)OC(C)=O)csc1C2=O (configuration not stated)
-- reply 4.35

-- ask Give me measured TGI, please, for this compound: "CCCCn1c2ccccc2c2ccc3c(c21)C(=O)C=CC3=O"
-- reply 3.46

-- ask Give me measured TGI, please, for this compound: "Nc1c(C(=O)N/N=C/c2ccc(-c3cc(Cl)c(Cl)cc3Cl)o2)cnn1-c1ccnc2c(C(F)(F)F)cccc12"
-- reply 28

-- ask Give me measured TGI, please, for this compound: "CCOc1ccc(/C=C2\NC(=S)N(/C=C3\C(=O)Oc4ccccc4C3=O)C2=O)cc1"
-- reply 82.1
